- System Name: DNA topoisomerase 1 (Homo sapiens)
- Assay Text: TOP-1 mediated DNA cleavage measured as effective concentration relative to topotecan = 1
- Type: functional
Below is a list of entries, each paired with its recorded REC value.
Kindly provide the number alone.

[
  {
    "Compound": "COc1cc2c(=O)n(CC3CCCO3)c3c4cc5c(cc4nnc3c2cc1OC)OCO5 (stereo not drawn)",
    "REC": 30
  }
]

Moving on to the next compound.
Input: So what does the record say about REC for COc1cc2c(=O)n(C(C)CN(C)C)c3c4cc5c(cc4nnc3c2cc1OC)OCO5 (stereo not drawn) ?
Output: 1000

====

Below is a list of entries, each paired with its recorded REC value.
- System Name: DNA topoisomerase 1 (Homo sapiens) (UniProt P11387)
- Sequence (P11387 whole entry): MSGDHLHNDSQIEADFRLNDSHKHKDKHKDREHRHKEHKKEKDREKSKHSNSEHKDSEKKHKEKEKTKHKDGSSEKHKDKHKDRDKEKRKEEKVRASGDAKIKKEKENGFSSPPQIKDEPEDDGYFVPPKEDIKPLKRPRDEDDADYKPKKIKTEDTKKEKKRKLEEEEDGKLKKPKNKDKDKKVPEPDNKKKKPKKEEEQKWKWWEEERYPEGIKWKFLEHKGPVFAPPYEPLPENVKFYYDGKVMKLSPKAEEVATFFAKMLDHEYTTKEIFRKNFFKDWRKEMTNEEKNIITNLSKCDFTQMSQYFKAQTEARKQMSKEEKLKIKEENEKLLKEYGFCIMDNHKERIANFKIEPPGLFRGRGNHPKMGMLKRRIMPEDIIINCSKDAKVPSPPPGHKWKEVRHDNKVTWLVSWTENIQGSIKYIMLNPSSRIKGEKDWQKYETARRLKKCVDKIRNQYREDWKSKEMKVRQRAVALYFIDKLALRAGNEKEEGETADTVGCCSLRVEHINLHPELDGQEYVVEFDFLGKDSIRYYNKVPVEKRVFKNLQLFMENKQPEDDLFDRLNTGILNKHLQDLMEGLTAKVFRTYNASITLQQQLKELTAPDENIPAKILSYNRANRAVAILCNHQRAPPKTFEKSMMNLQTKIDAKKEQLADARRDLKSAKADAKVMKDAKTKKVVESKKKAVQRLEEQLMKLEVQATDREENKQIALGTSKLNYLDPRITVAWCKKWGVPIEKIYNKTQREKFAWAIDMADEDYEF
- Assay Text: TOP-1 mediated DNA cleavage measured as effective concentration relative to topotecan = 1
- Assay type: functional
Kindly provide the number alone.

[
  {
    "Compound": "CC[C@@]1(O)C(=O)OCc2c1cc1n(c2=O)Cc2cc3c(CN(C)C)c(O)ccc3nc2-1",
    "Reading": 1
  }
]

Input: So what does the record say about REC for COc1cc2c(=O)n(CCN(C)C)c3c4cc5c(cc4nnc3c2cc1OC)OCO5 ?
Output: 0.3

Input: Here is the next compound: CCCCn1c(=O)c2cc(OC)c(OC)cc2c2nnc3cc4c(cc3c21)OCO4
Output: 1

Input: Here is the next compound: COc1cc2c(=O)n(CC3CCCO3)c3c4cc5c(cc4ncc3c2cc1OC)OCO5 (stereo not given)
Output: 200

====

- Tested on: RPMI 8402
- Assay Text: Cytotoxicity against human lymphoblast tumor cell line RPM18402
- Assay type: functional, cell-based
Please assign false whenever IC50 is at or above 200 nM, and true whenever it is below.

Past entries and their recorded results:
[
  {
    "Molecule": "CCCCn1c(=O)c2cc(OC)c(OC)cc2c2nnc3cc4c(cc3c21)OCO4",
    "Group": "true"
  },
  {
    "Molecule": "COc1cc2c(=O)n(C(C)CN(C)C)c3c4cc5c(cc4nnc3c2cc1OC)OCO5 (centres undefined)",
    "Group": "false"
  },
  {
    "Molecule": "COc1cc2c(=O)n(CC3CCCO3)c3c4cc5c(cc4ncc3c2cc1OC)OCO5 (centres undefined)",
    "Group": "true"
  },
  {
    "Molecule": "COc1cc2c(=O)n(CCN(C)C)c3c4cc5c(cc4nnc3c2cc1OC)OCO5",
    "Group": "true"
  },
  {
    "Molecule": "COc1cc2c(=O)n(C(C)CN(C)C)c3c4cc5c(cc4ncc3c2cc1OC)OCO5 (centres undefined)",
    "Group": "false"
  }
]

Input: Problem: For the molecule CC[C@@]1(O)C(=O)OCc2c1cc1n(c2=O)Cc2cc3c(CN(C)C)c(O)ccc3nc2-1 [TOPOTECAN] , is IC50 under 200 nM?
Output: true

Input: Here is the next molecule: COc1cc([C@@H]2c3cc4c(cc3[C@@H](O[C@@H]3O[C@@H]5CO[C@@H](c6cccs6)O[C@H]5[C@H](O)[C@H]3O)[C@H]3COC(=O)[C@H]23)OCO4)cc(OC)c1O [TENIPOSIDE]
Output: false

Input: Here is the next molecule: COc1cc2c(=O)n(CCN(C)C)c3c4cc5c(cc4ncc3c2cc1OC)OCO5
Output: true

Input: Here is the next molecule: COc1cc2c(=O)n(CC3CCCO3)c3c4cc5c(cc4nnc3c2cc1OC)OCO5 (centres undefined)
Output: true
